Source of measurements: patent US5389641A

- Subject Of Test: AII receptor (Bos taurus, UniProt P25104)
- Construct: An AII receptor membrane fraction was prepared from bovine adrenal cortex; from tissue; host or cells: bovine adrenal cortex, membrane fraction
- Sequence (P25104 1-359): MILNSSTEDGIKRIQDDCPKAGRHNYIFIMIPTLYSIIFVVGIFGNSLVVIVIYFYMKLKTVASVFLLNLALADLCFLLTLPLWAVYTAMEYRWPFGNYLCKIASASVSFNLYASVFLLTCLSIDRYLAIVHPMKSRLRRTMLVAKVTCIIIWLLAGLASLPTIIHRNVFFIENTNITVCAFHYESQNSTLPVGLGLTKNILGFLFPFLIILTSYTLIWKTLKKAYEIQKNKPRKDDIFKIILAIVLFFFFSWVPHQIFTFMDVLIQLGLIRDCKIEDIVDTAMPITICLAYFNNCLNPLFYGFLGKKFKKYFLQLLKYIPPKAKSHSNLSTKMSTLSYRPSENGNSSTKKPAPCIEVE
- Assay Name: Inhibition of binding of [125I]-angiotensinII to AII receptor (radioreceptor assay)
- Protocol Conditions: 1 h; 10^-6 (M); membrane fraction from bovine adrenal cortex, room temperature, one hour
Reported values of inhibition at 1 µM for individual entries
Lab note: write values as number then unit, every time.

Answered cases to consult:
INSERT INTO measurements (molecule, subject_of_test, result) VALUES
  ('CCCCc1nc2c(C)cnc(C(=O)O)c2n1Cc1ccc(-c2ccccc2-c2nnn[nH]2)cc1', 'AII receptor (Bos taurus, UniProt P25104)', '92%'),
  ('CCCCc1nc2cccc(C(=O)O)c2n1Cc1ccc(-n2cccc2-c2nnn[nH]2)cc1', 'AII receptor (Bos taurus, UniProt P25104)', '67%'),
  ('CCc1cc2c(=O)c3cccc(C(=O)O)c3n(Cc3ccc(-c4ccccc4-c4nnn[nH]4)cc3)c2s1', 'AII receptor (Bos taurus, UniProt P25104)', '49%'),
  ('CCc1cc2c(=O)c3cccc(C(=O)OCOC(=O)C(C)(C)C)c3n(Cc3ccc(-c4ccccc4-c4nnn[nH]4)cc3)c2s1', 'AII receptor (Bos taurus, UniProt P25104)', '69%'),
  ('CCCc1nc2c(C)cnc(C(=O)O)c2n1Cc1ccc(-c2ccccc2-c2nnn[nH]2)cc1', 'AII receptor (Bos taurus, UniProt P25104)', '92%');

Q: Param readout= inhibition at 1 µM; system= AII receptor (Bos taurus, UniProt P25104); entry= "CCCc1nn2ncc(C(=O)OCOC(=O)C(C)(C)C)c2n1Cc1ccc(-c2ccccc2-c2nnn[nH]2)cc1" ; returns value.
Ans: 61%

Q: Param readout= inhibition at 1 µM; system= AII receptor (Bos taurus, UniProt P25104); entry= CCc1cc2c(=O)c3cccc(C(=O)OC(C)OC(=O)OC4CCCCC4)c3n(Cc3ccc(-c4ccccc4-c4nnn[nH]4)cc3)c2s1 (stereo not shown) ; returns value.
Ans: 19%

Q: Param readout= inhibition at 1 µM; system= AII receptor (Bos taurus, UniProt P25104); entry= "CCCc1cn2ncc(C(=O)O)c2n1Cc1ccc(-c2ccccc2-c2nn[nH]n2)cc1" ; returns value.
Ans: 91%

Q: Param readout= inhibition at 1 µM; system= AII receptor (Bos taurus, UniProt P25104); entry= "CCCc1cc2cccc(C(=O)O)c2n1Cc1ccc(-c2ccccc2-c2nnn[nH]2)cc1" ; returns value.
Ans: 39%

Q: Param readout= inhibition at 1 µM; system= AII receptor (Bos taurus, UniProt P25104); entry= "CCOc1nc(C(=O)O)c2c(n1)nc(OCC)n2Cc1ccc(-c2ccccc2-c2nnn[nH]2)cc1" ; returns value.
Ans: 49%

Q: Param readout= inhibition at 1 µM; system= AII receptor (Bos taurus, UniProt P25104); entry= "CCCCc1nc2cccc(C(=O)O)c2n1Cc1ccc2c(=O)n(-c3ccccc3-c3nnn[nH]3)cnc2c1" ; returns value.
Ans: 80%

Q: Param readout= inhibition at 1 µM; system= AII receptor (Bos taurus, UniProt P25104); entry= "CCCc1nn2ncc(C(=O)O)c2n1Cc1ccc(-c2ccccc2-c2nnn[nH]2)cc1" ; returns value.
Ans: 86%

Q: Param readout= inhibition at 1 µM; system= AII receptor (Bos taurus, UniProt P25104); entry= "CCCCc1nc2cccc(C(=O)O)c2n1Cc1ccc(-c2ccccc2-c2nnn[nH]2)nc1" ; returns value.
Ans: 70%
